Experiment: binders of probe aFSTL3 on microarray, primary screen, stem cell growth factor project, biochemical, small-molecule microarray, fluorescence 635/667 (AID 1064);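 also: measures binding of the biotinylated anti-FSTL3 antibody to printed compounds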
Conditions: higher = more signal
QUANTITY_MEASURED: composite z-score

chemical_structure=O=C1O[C@@H](c2ccccc2)[C@@H](c2ccccc2)N2[C@@H](c3ccccc3OCCO)[C@]3(C(=O)Nc4ccc(C#CC5=CCCCC5)cc43)[C@@H](C(=O)O)[C@H]12 quantity_measured="composite z-score" data_value=0.294
chemical_structure=COc1ccc([Si](C)(C)[C@@H]2[C@@H](CCO)O[C@]3(C(=O)N(Cc4ccc(NC(=O)[C@H](C)O)cc4)c4ccccc43)[C@H]2C)cc1 quantity_measured="composite z-score" data_value=0.0169
chemical_structure=CO[C@H]1COC(=O)CC=C[C@@H](C)COC(=O)[C@@H](C)NC(=O)CC=C[C@@H]1C quantity_measured="composite z-score" data_value=-1.1
chemical_structure=COC(=O)[C@@]1(Cc2ccc(OC)cc2)[C@H]2c3cc(C(=O)N(C)C)n(CCc4ccc(OC)c(Br)c4)c3C[C@H]2CN1C(=O)c1ccccc1 quantity_measured="composite z-score" data_value=1.53
chemical_structure=C=C(CCCC)C(=O)CC[C@@H](OC(=O)c1cccnc1)c1cccc(OCCO)c1 quantity_measured="composite z-score" data_value=0.116
chemical_structure=COCCOC(=O)N1C(=O)[C@@]2(c3cc(C#CC4=CCCCC4)ccc31)[C@H](C(=O)NC[C@H](O)c1ccccc1)[C@H]1C(=O)O[C@H](c3ccccc3)[C@H](c3ccccc3)N1[C@@H]2c1ccc(OCCO)cc1 quantity_measured="composite z-score" data_value=-0.409
chemical_structure=COC(=O)[C@@]1(Cc2ccccc2CN=[N+]=[N-])N=C(c2ccc(OCCCO)cc2)O[C@H]1c1ccccc1N=[N+]=[N-] quantity_measured="composite z-score" data_value=0.127

====

Assay: cell viability in Huh7 cells, primary screen, cytotoxicity control for HCV replication inhibitor project, CellTiter-Glo luminescence, basal, 48 h (AID 1143);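 also: Huh7 hepatoma cells carrying a hepatitis C replication reporter with no stimulus; test concentration not given here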
Conditions: Huh7 HCV replicon, higher = more signal, called active from +8 up or from −8 down
Listing of recorded z-score by entry.
QUANTITY_MEASURED: z-score

chemical_structure=CCOC(=O)C[C@H]1[C@H](OC(=O)c2cc3ccccc3oc2=O)[C@@H](NC(=O)c2ccc3ccccc3c2)c2cc(OCCCO)ccc2N1C(=O)c1ccc2ccccc2n1 data_value=-0.574
chemical_structure=CC(C)(C)OC(=O)CC[C@]1(C(=O)NCCN2CCOCC2)N=C(c2ccc(OCCCO)cc2)O[C@H]1c1ccccc1CN=[N+]=[N-] data_value=-1.11
chemical_structure=CO[C@H]1COC(=O)[C@@H](OCc2ccccc2)C=C[C@H](C)[C@@H](OC)COC(=O)[C@H](OCc2ccccc2)C=C[C@@H]1C data_value=-2.26
chemical_structure=CO[C@H]1COC(=O)CC=C[C@@H](C)COC(=O)[C@@H](C)NC(=O)CC=C[C@@H]1C data_value=-3.48
chemical_structure=CC(C)[Si]1(C(C)C)O[C@@H](c2ccccc2)c2cc(C3CC3)nc(-c3ccc(Oc4ccccc4)cc3)c21 data_value=-0.313
chemical_structure=[N-]=[N+]=Nc1ccccc1C[C@@]1(C(=O)N2CCOCC2)N=C(c2ccc(OCCCO)cc2)O[C@@H]1c1ccccc1N=[N+]=[N-] data_value=-5.17
chemical_structure=C=CCc1cccc([C@H]2N[C@H](C(=O)O)CC[C@@H]2C)c1 data_value=0.0815
